Data provenance: ChEMBL document CHEMBL1773050

Test system: BSC-1
MEASUREMENT NOTES: Cytotoxicity against african green monkey BSC1 cells infected with Vaccinia virus assessed as lactate dehydrogenase release after 20 hrs by microplate reader
Assay type: cell-based
ASSAY CONTEXT: chlorocebus aethiops, bsc-1, 20 h
Give CC50 for every item shown.

Solved cases (2 shown):
| SMILES REPR | CC50 |
| --- | --- |
| COc1cc(NC(=O)c2cccc3c2C(=O)N(C2CCCCC2)C3)cc(OC)c1OC | > 200 µM |
| Fc1ccc(Nc2c(-c3ccccn3)nc3ccc(Cl)cn23)cc1 | > 200 µM |

CC50 recorded for this molecule, `COc1ccc(Nc2c(-c3cc(Br)ccc3O)nc3ncccn23)cc1OC` , is > 200 µM

====

Tested on: Vaccinia virus
MEASUREMENT NOTES: Antiviral activity against Vaccinia virus infected in BSC-1 cells by plaque reduction assay
Type: functional, organism-based
ASSAY CONTEXT: Orthopoxvirus vaccinia
Give EC50 for every item shown.
Give bare numbers, in µM.

| MOLECULE | EC50 [µM] |
| --- | --- |
| O=S(=O)(c1ccc(C2=CSC(Nc3ccc(F)cc3)N2CCCCCCO)cc1)N1CCCC1 (configuration not stated) | 3.2 |
| Oc1ccc(Cl)cc1Sc1cc(Cl)ccc1O | 18.7 |
| Cc1ccnc(NC(c2ccccc2F)c2ccc3cccnc3c2O)c1 (configuration not stated) | 2.9 |
| COc1cc(-c2nc3ccc(Cl)cn3c2Nc2ccc3c(c2)OCCO3)ccc1O | 10.8 |

For each of the molecules below, note its EC50.
1. COc1ccc(Nc2cc(C(=O)NCCCN3CCN(c4ccccc4F)CC3)c3ccccc3n2)c(OC)c1
2. CCOc1ccc2c(c1)C1CC=CC1[C@H](c1ccccc1Cl)N2 (some centres not stated)

Result:
[25.8, 22.4]

====

Give IC50 for every item shown.
EXPERIMENTAL SYSTEM: Uracil-DNA glycosylase (Vaccinia virus (strain Western Reserve) (VACV) (Vaccinia virus (strainWR)), UniProt P04303)
MEASUREMENT NOTES: Inhibition of Vaccinia virus WR strain processivity factor D4 interaction with A20 protein assessed as inhibition of E9 DNA polymerase-mediated DIG-dUTP incorporation into DNA strand by rapid plate assay
Answers are plain numbers, in µM.

| SMILES REPR | UNIT SYMBOL | IC50 |
| --- | --- | --- |
| COc1cc(-c2nc(-c3ccccc3)c(-c3ccc(Br)cc3)[nH]2)cc(OC)c1O | µM | 91.2 |

Next compound, IC50 to be filled in.
IC50 recorded for this compound, `CN(C)c1ccc(NC(=O)CSc2nc(-c3ccco3)cc(C(F)(F)F)n2)cc1` , is 140
